# TARGET_DESC: GRM2 (Homo sapiens, UniProt Q14416)
# Construct: purchased Promega (in-house HiBiT-GPCR construct library, NanoBRET)
# Sequence (Q14416 19-872): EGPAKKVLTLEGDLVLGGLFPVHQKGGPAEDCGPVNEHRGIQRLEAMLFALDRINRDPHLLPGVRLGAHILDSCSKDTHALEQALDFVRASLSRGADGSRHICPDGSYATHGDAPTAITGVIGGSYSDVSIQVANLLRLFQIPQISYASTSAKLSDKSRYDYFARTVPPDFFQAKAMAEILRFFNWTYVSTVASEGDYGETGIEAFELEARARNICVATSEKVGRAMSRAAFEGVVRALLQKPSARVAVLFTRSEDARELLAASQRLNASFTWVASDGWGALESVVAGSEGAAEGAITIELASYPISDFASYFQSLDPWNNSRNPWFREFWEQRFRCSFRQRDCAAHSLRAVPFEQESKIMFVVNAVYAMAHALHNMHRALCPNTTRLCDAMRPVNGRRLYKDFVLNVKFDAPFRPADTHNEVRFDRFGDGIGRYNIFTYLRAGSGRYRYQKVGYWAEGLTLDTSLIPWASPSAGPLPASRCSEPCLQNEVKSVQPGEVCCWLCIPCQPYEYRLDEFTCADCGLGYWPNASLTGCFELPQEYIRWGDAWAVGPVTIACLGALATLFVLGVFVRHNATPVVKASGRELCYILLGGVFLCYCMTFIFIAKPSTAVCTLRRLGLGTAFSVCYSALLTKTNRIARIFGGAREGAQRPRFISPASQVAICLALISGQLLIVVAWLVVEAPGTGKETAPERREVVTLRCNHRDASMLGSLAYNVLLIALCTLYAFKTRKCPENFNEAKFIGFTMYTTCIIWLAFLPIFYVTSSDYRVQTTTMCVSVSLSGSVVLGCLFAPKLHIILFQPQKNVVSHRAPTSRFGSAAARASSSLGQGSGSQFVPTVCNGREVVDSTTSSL
# TEST: NanoBRET screen HiBiT-GRM2 in HEK293
# Type: binding
# EXPERIMENTAL_CONDITIONS: GRM2; tracer 1μM
Recorded NanoBRET Fold Response for the following compounds
Provide a numeric answer; units are not to be included.

Query string: Identify measured NanoBRET Fold Response obtained with GRM2 (Homo sapiens, UniProt Q14416) for "O=C(CCc1ccc2n1[B-](F)(F)[N+]1=C(c3ccc[nH]3)C=CC1=C2)NCCOCCOCCNC(=O)OCCOCCN1CCN(C2=Nc3ccccc3Sc3ccccc32)CC1" .
Result string: 1.06

Query string: Given O=C(CCc1ccc2n1[B-](F)(F)[N+]1=C(c3ccc[nH]3)C=CC1=C2)NCc1ccc(C(=O)NCCOCCC(=O)N[C@@H]2CC[C@@]3(O)[C@H]4Cc5ccc(O)c6c5[C@@]3(CCN4CC3CC3)[C@H]2O6)cc1 [Naltrexone-3-NB590] , report its NanoBRET Fold Response on GRM2 (Homo sapiens, UniProt Q14416).
Result string: 0.98

Query string: Give NanoBRET Fold Response for "COc1ccccc1N1CCN(CCCCN2C(=O)c3ccc(CNC(=O)CCOCCNC(=O)c4ccc(CNC(=O)CCc5ccc6n5[B-](F)(F)[N+]5=C(c7ccc[nH]7)C=CC5=C6)cc4)cc3C2=O)CC1" tested on GRM2 (Homo sapiens, UniProt Q14416).
Result string: 1.03

Query string: Report the value of NanoBRET Fold Response obtained on GRM2 (Homo sapiens, UniProt Q14416) for "COc1ccccc1N1CCN(CCCCN2C(=O)c3ccc(CNC(=O)CCOCCOCCOCCOCCNC(=O)CCc4ccc5n4[B-](F)(F)[N+]4=C(c6ccc[nH]6)C=CC4=C5)cc3C2=O)CC1" .
Result string: 1.00

Query string: Enter NanoBRET Fold Response (test system GRM2 (Homo sapiens, UniProt Q14416)) for "N#CN=C(NCCCOc1cccc(CN2CCCCC2)c1)NCCNC(=O)CCOCCOCCOCCOCCNC(=O)CCc1ccc2n1[B-](F)(F)[N+]1=C(c3ccc[nH]3)C=CC1=C2"
Result string: 0.99

Query string: Report NanoBRET Fold Response from GRM2 (Homo sapiens, UniProt Q14416) testing of Cc1nc2n(c(=O)c1CCN1CCC(c3noc4cc(F)ccc34)CC1)CCCC2OC(=O)NCCOCCOCCOCCOCCNC(=O)CCc1ccc2n1[B-](F)(F)[N+]1=C(c3ccc[nH]3)C=CC1=C2 (stereo not drawn)
Result string: 1.04

Query string: Name the recorded NanoBRET Fold Response of "CC(C)N(CC[C@H](c1ccccc1)c1cc(CCNC(=O)c2ccc(CNC(=O)CCc3ccc4n3[B-](F)(F)[N+]3=C(c5ccc[nH]5)C=CC3=C4)cc2)ccc1O)C(C)C" , assay system GRM2 (Homo sapiens, UniProt Q14416).
Result string: 0.15

Query string: State, for GRM2 (Homo sapiens, UniProt Q14416), measured NanoBRET Fold Response of the compound listed here: "CCCn1c(=O)c2[nH]c(-c3ccc(OCC(=O)NCCNC(=O)CCOCCNC(=O)c4ccc(CNC(=O)CCc5ccc6n5[B-](F)(F)[N+]5=C(c7ccc[nH]7)C=CC5=C6)cc4)cc3)nc2n(CCC)c1=O"
Result string: 1.03

Query string: Please tell me the measured NanoBRET Fold Response for "CC(C)N(CC[C@H](c1ccccc1)c1cc(CCNC(=O)CCOCCOCCOCCOCCNC(=O)CCc2ccc3n2[B-](F)(F)[N+]2=C(c4ccc[nH]4)C=CC2=C3)ccc1O)C(C)C" ; system: GRM2 (Homo sapiens, UniProt Q14416).
Result string: 0.97

Query string: GET NanoBRET Fold Response where system = GRM2 (Homo sapiens, UniProt Q14416) and item = "CN(C)CCC=C1c2ccccc2CCc2ccc(C(=O)NCCNC(=O)CCOCCOCCOCCOCCNC(=O)CCc3ccc4n3[B-](F)(F)[N+]3=C(c5ccc[nH]5)C=CC3=C4)cc21"
Result string: 0.98

Query string: Report value: NanoBRET Fold Response, system: GRM2 (Homo sapiens, UniProt Q14416), compound: "O=C(CCOCCOCCOCCOCCNC(=O)CCc1ccc2n1[B-](F)(F)[N+]1=C(c3ccc[nH]3)C=CC1=C2)NCCCN1CCN(C2=Nc3ccccc3Oc3ccc(Cl)cc32)CC1"
Result string: 1.25

Query string: Give the observed NanoBRET Fold Response of "Cc1cc2c(s1)Nc1ccccc1N=C2N1CCN(CCCNC(=O)CCOCCOCCOCCOCCNC(=O)CCc2ccc3n2[B-](F)(F)[N+]2=C(c4ccc[nH]4)C=CC2=C3)CC1" for GRM2 (Homo sapiens, UniProt Q14416).
Result string: 1.01
